# Tested on: Yap1 mRNA
# experiment: Dose-dependent inhibition of human Yap1 in A-431 cells (Example 6, 5,000 cells per well, RTS4814)
# Format: cell-based
# test-settings: Table 53; A-431 cells, free uptake, 444 nM, approximately 48 hours, RTS4814
Strand notation (5' to 3'): a small letter for the sugar, then the base; units joined by * are phosphorothioate-linked, units joined directly phosphodiester-linked; [ ] holds rarer units or linkages, { } end groups; capitals alone tell only the bases. k = constrained ethyl (cEt); [5mC] = 5-methylcytosine; d = 2'-deoxy (DNA)
Each item that follows carries a reported % UTC 444 nM.

[
  {
    "substance": "715478 (kA*k[5mC]*k[5mC]*dA*dT*dT*dA*dT*dT*dA*d[5mC]*dT*d[5mC]*k[5mC]*kT*kG; antisense) [compound 715478]",
    "% UTC 444 nM, % UTC": 47
  },
  {
    "substance": "715490 (k[5mC]*k[5mC]*kA*dA*d[5mC]*dT*dA*dT*dT*dA*d[5mC]*dT*dT*k[5mC]*kA*kT; antisense) [compound 715490]",
    "% UTC 444 nM, % UTC": 89
  },
  {
    "substance": "715480 (kG*kG*kA*dA*dA*d[5mC]*d[5mC]*dA*dT*dT*dA*dT*dT*kA*k[5mC]*kT; antisense) [compound 715480]",
    "% UTC 444 nM, % UTC": 79
  },
  {
    "substance": "715473 (kT*k[5mC]*kT*dT*dT*dA*dT*d[5mC]*dT*dA*dG*d[5mC]*dT*kT*kG*kG; antisense) [compound 715473]",
    "% UTC 444 nM, % UTC": 67
  },
  {
    "substance": "715508 (k[5mC]*kT*kG*dT*dG*d[5mC]*dT*dG*dG*dG*dA*dT*dT*kG*kA*kT; antisense) [compound 715508]",
    "% UTC 444 nM, % UTC": 70
  },
  {
    "substance": "715510 (kA*kT*kT*dT*dG*d[5mC]*dT*dG*dT*dG*d[5mC]*dT*dG*kG*kG*kA; antisense) [compound 715510]",
    "% UTC 444 nM, % UTC": 67
  },
  {
    "substance": "715423 (k[5mC]*k[5mC]*kA*dT*dG*dT*dT*dG*dT*dT*dG*dT*d[5mC]*kT*kG*kA; antisense) [compound 715423]",
    "% UTC 444 nM, % UTC": 91
  }
]

###

// % UTC (Yap1 mRNA) lookup, one value per entry
# System: Yap1 mRNA
# experiment: Dose-dependent inhibition of human Yap1 in SNU-449 cells (Example 9, RTS36584)
# Type: cell-based
# test-settings: 500.0 nM, free uptake, approximately 48 hours
# Procedure: Modified oligonucleotides described in the studies above were tested at various doses in SNU-449 cells. […] After approximately 48 hours, Yap1 mRNA levels were measured as previously described using the Human Yap1 primer-probe set RTS36584. Yap1 mRNA levels were normalized to total RNA content, as measured by RIBOGREEN®. […] IC50s were calculated using a linear regression on a log/linear plot of the data in excel.
Strand notation (5' to 3'): a small letter for the sugar, then the base; units joined by * are phosphorothioate-linked, units joined directly phosphodiester-linked; [ ] holds rarer units or linkages, { } end groups; capitals alone tell only the bases. e = 2'-O-(2-methoxyethyl) (MOE); k = constrained ethyl (cEt); [5mC] = 5-methylcytosine; d = 2'-deoxy (DNA)

[
  {
    "substance": "1198288 (kG*kA*kA*dA*dT*dT*dG*dT*d[5mC]*dT*d[5mC]*dA*kT*eG*k[5mC]*e[5mC]; antisense) [compound 1198288]",
    "% UTC (Yap1 mRNA) / % UTC": 17
  },
  {
    "substance": "1198696 (kT*kG*dT*dA*dT*dG*dT*d[5mC]*dA*dG*dA*dA*kG*eA*kG*eT) [compound 1198696]",
    "% UTC (Yap1 mRNA) / % UTC": 11
  },
  {
    "substance": "1198527 (kA*kA*dA*dG*dT*dG*dT*dA*dT*dG*dT*e[5mC]*kA*eG*kA*eA; antisense) [compound 1198527]",
    "% UTC (Yap1 mRNA) / % UTC": 12
  },
  {
    "substance": "1198526 (kA*kA*dG*dT*dG*dT*dA*dT*dG*dT*d[5mC]*eA*kG*eA*kA*eG; antisense) [compound 1198526]",
    "% UTC (Yap1 mRNA) / % UTC": 8
  },
  {
    "substance": "1198460 (kG*kA*dA*dA*dT*dT*dG*dT*d[5mC]*dT*d[5mC]*eA*kT*eG*k[5mC]*e[5mC]; antisense) [compound 1198460]",
    "% UTC (Yap1 mRNA) / % UTC": 28
  },
  {
    "substance": "1198211 (kA*kT*dT*dA*dG*dA*dG*dT*dA*dT*dG*eT*eG*eG*k[5mC]*kA) [compound 1198211]",
    "% UTC (Yap1 mRNA) / % UTC": 23
  },
  {
    "substance": "1198358 (kT*kT*kT*dA*dA*dA*dG*dT*dG*dT*dA*dT*kG*eT*k[5mC]*eA; antisense) [compound 1198358]",
    "% UTC (Yap1 mRNA) / % UTC": 20
  }
]
